The values you see were collected from PubChem BioAssay.

Kindly supply the reported viability increase values for the records listed here.
PROTOCOL_DESCRIPTION: viability gain of MRP-1-high H69AR cells under doxorubicin, pilot screen, MRP-1 activator project, CellTiter-Glo, duplicate (AID 807);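 note: compound pretreatment 18-22 h then 72 h combined with doxorubicin; 0% = doxorubicin alone and 100% = vehicle without doxorubicin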
CONDITIONS: H69AR viability with doxorubicin, CellTiter-Glo luminescence; at 10 µM; active compounds read high
Give bare numbers, in %.

These solved cases illustrate the format of a correct answer.
COMPOUND | viability increase / %
CCOC(=O)c1[nH]c(C)c(C(=O)NC(C)CC)c1C (configuration not stated) | 1.35
COc1cccc(NC(=O)c2nnn(CCc3ccccc3)c2N)c1 | -6.11
CCc1nc(SCC(=O)Nc2ccc(C(=O)O)cc2)n[nH]1 | -1.05
O=C(Nc1sc2c(c1C(=O)O)CCCC2)c1cccs1 | -1.03
CCOC(=O)CNC(=O)C(NC(=O)C1CCC(C)CC1)C(C)CC (configuration not stated) | -1.73
COc1cccc(N(CC(=O)Nc2cccc(F)c2)S(C)(=O)=O)c1 | -1.38

Would you mind giving viability increase for every compound in the list below?
1. CC1CCN(c2nc3c(c(=O)n(C)c(=O)n3C)n2CCSc2ncccn2)CC1
2. COC(=O)c1ccc(OCC(O)CN(CC(C)C)CC(C)C)cc1 (configuration not stated)
3. Cc1ccc(C2=CC(c3ccc(N(C)C)cc3)n3nnnc3N2)cc1 (configuration not stated)
4. CCOC(=O)C1=C(C)NC(=O)NC1c1c(O)ccc2ccccc12 (configuration not stated)

1: -0.04; 2: -1.4; 3: -4.61; 4: -3.39

Please give viability increase, item by item, for the list that follows.
1. COc1ccc(N2C(=O)C3CCCN3C2c2cc(OC)c(OC)cc2OC)cc1 (configuration not stated)
2. CCCOc1ccc(C2c3c(oc4cc(C)c(C)cc4c3=O)C(=O)N2CCCN2CCOCC2)cc1 (configuration not stated)
3. Cn1c(Cn2c(=O)sc3ccccc32)nnc1SCC(=O)NCCc1ccccc1
4. CC1=Nc2ccc(C)cc2N(Cc2ccccc2)C(=O)C1
5. COc1ccc(NC(=O)N(CCC(C)C)C(C)c2ccccn2)c(OC)c1 (configuration not stated)
6. CC(C)N(Cc1nc(-c2ccccc2)no1)S(=O)(=O)c1ccccc1
7. CCOC(=O)CC1C(=O)NCCN1C(=O)c1cc2c(=O)n3ccccc3nc2s1 (configuration not stated)
8. O=C(CCCn1c(=O)oc2ccccc21)N1CCc2ccccc2C1

-3.74
-2.28
-0.09
0.47
-3.52
1.67
1.22
-4.06

Please state viability increase for every compound in the list that follows.
1. CCCCn1c(CCNC(=O)CC)nc2ccccc21
2. CCOc1ccccc1NC(=O)C1CCC(CNc2c(N3CCOCC3)c(=O)c2=O)CC1 (configuration not stated)
3. O=C1CCCCC(=O)N(c2ccccc2)c2ccccc21
4. Cc1noc(C(=O)Nc2sc3c(c2C#N)CCC3)c1Cl
5. CCOC(=O)N1CCN(C(=O)CSc2nnc(-c3ccc(C)c(C)c3)o2)CC1
6. Cn1nc(-c2ccc(Cl)cc2)c2cc(C(=O)N3CCCC3)sc21
7. CCOc1ccc(NC(=O)CN(c2ccc(OC)cc2)S(C)(=O)=O)cc1

[-1.11, -0.66, -3.3, -1.69, -2.44, -2.97, 0.19]

Go through the items and report each one's viability increase.
1. Cc1n[nH]c(=O)nc1NCc1ccccc1
2. Cc1nc2c3ccccc3n(CC#N)c(=O)n2n1
3. COc1cc(C(=O)NCc2ccco2)c(Br)c(OC)c1OC
4. Cc1cc(Nc2cccc(F)c2)n2ncnc2n1
5. CC1(C)Oc2ccc3ccc(=O)oc3c2-c2cnoc21
6. Cc1cnc(C(=O)OCC(=O)Nc2ccc(Cl)cc2)cn1
7. CCN(C(=O)COC(=O)C(Cc1ccccc1)N1C(=O)c2ccccc2C1=O)C1CCS(=O)(=O)C1 (configuration not stated)
8. COc1ccc2c(Cl)c(-c3nnc(SCC(N)=O)n3C)sc2c1

1. -0.55
2. -3.78
3. -4.68
4. 0
5. -0.4
6. -2.99
7. 0.46
8. -2.99
